System: Cyperus amuricus
assay overview: Weed spectrum, greenhouse pot test
Format: in vivo
measurement context: Pre-emergence, 50 g ai/ha, two weeks after application
For each record, write down the corresponding efficacy (0-100 scale).

1) Cc1cc(C)nc(NC(=O)NS(=O)(=O)c2ccccc2C(O)C(C)F)n1 (stereo not shown) [Example 1]	100
2) COc1cc(OC)nc(NC(=O)NS(=O)(=O)c2ncccc2C(F)(F)F)n1 [Control chemical No. 2, Flazasulfuron, reference compound]	80
3) COc1nc(C)nc(NC(=O)NS(=O)(=O)c2cscc2C2(CF)OCCO2)n1 [Example 2]	50

# evaluate next
Reported efficacy (0-100 scale) for CCOC(=O)c1cnn(C)c1S(=O)(=O)NC(=O)Nc1nc(OC)cc(OC)n1 [Control chemical No. 1, Pyrazosulfuron ethyl, reference compound] was 100

====

Test system: Perennial rye grass
assay overview: Turf grass selectivity, greenhouse pot test
Format: in vivo
measurement context: 12 g ai/ha, 2 weeks
assay endpoint: phytotoxicity (visual assessment 0-10)
One number for each entry.

Previously resolved entries follow.
1) CCOC(=O)c1cnn(C)c1S(=O)(=O)NC(=O)Nc1nc(OC)cc(OC)n1 [Control chemical No. 1, Pyrazosulfuron ethyl, reference compound]	0
2) COc1cc(OC)nc(NC(=O)NS(=O)(=O)c2ncccc2C(F)(F)F)n1 [Control chemical No. 2, Flazasulfuron, reference compound]	10
3) Cc1cc(C)nc(NC(=O)NS(=O)(=O)c2ccccc2C(O)C(C)F)n1 (stereo not shown)	0

Param item: COc1nc(C)nc(NC(=O)NS(=O)(=O)c2cscc2C2(CF)OCCO2)n1 ; param system: Perennial rye grass; output phytotoxicity (visual assessment 0-10): 7

====

Tested on: Bentgrass
assay overview: Turf grass selectivity, greenhouse pot test
Type: in vivo, Agrostris palustris
measurement context: 50 g ai/ha, 2 weeks
Exercise: for every item that follows, state its recorded phytotoxicity (visual assessment 0-10).
Give bare numbers.

Parameters: items (list). Returns: phytotoxicity (visual assessment 0-10) for each item.
1. CCOC(=O)c1cnn(C)c1S(=O)(=O)NC(=O)Nc1nc(OC)cc(OC)n1 [Control chemical No. 1, Pyrazosulfuron ethyl, reference compound]
2. Cc1cc(C)nc(NC(=O)NS(=O)(=O)c2ccccc2C(O)C(C)F)n1 (stereo not shown)
3. COc1nc(C)nc(NC(=O)NS(=O)(=O)c2cscc2C2(CF)OCCO2)n1
4. COc1cc(OC)nc(NC(=O)NS(=O)(=O)c2ncccc2C(F)(F)F)n1 [Control chemical No. 2, Flazasulfuron, reference compound]

0
0
10
10

====

Task for the reader: assign each of the following compounds its reported phytotoxicity (visual assessment 0-10).
Tested on: Perennial rye grass
assay overview: Turf grass selectivity, greenhouse pot test
Type: in vivo
measurement context: 200 g ai/ha, 4 weeks
Give bare numbers.

The examples below pair each entry with its known result.
1) COc1cc(OC)nc(NC(=O)NS(=O)(=O)c2ncccc2C(F)(F)F)n1 [Control chemical No. 2, Flazasulfuron, reference compound]	10
2) Cc1cc(C)nc(NC(=O)NS(=O)(=O)c2ccccc2C(O)C(C)F)n1 (stereo not shown)	0
3) CCOC(=O)c1cnn(C)c1S(=O)(=O)NC(=O)Nc1nc(OC)cc(OC)n1 [Control chemical No. 1, Pyrazosulfuron ethyl, reference compound]	0

// COc1nc(C)nc(NC(=O)NS(=O)(=O)c2cscc2C2(CF)OCCO2)n1 : phytotoxicity (visual assessment 0-10) value = 10

Cited source: patent US20100035755A1
